Source of measurements: BigSolDB 2.1

Study Conditions: in methanol, 293.15 K
Observed Property: solubility (mole fraction)
Numbers only.

May I ask what solubility (mole fraction) has been recorded for COC1CCC2(CC1)NC(=O)C(c1cc(C)ccc1C)=C2O (stereo unspecified) ?
0.00379

---

Study Conditions: in ethanol, 303.15 K
Observed Property: solubility (mole fraction)
Give bare numbers.

May I ask what solubility (mole fraction) has been recorded for COC1CCC2(CC1)NC(=O)C(c1cc(C)ccc1C)=C2O (stereo unspecified) ?
0.00341

---

Study Conditions: in methanol, 313.15 K
Observed Property: solubility (mole fraction)
One number for each entry.

May I ask what solubility (mole fraction) has been recorded for COC1CCC2(CC1)NC(=O)C(c1cc(C)ccc1C)=C2O (stereo unspecified) ?
0.00589
